Quick record of pIC50 values for human Gal-1 (hGal-1) (Homo sapiens, UniProt P09382).
Lab note — pIC50 values are minus log10 of concentrations in M.

Data request: Would you mind telling me what pIC50 value was observed for CCN(C)C(=O)C(S[C@@H]1O[C@H](CO)[C@H](O)[C@H](n2cc(-c3cc(F)c(F)c(F)c3)nn2)[C@H]1O)C(O)c1ccn(C)n1 (stereo partly shown) ?
Data returned: 5.52

Data request: Give the measured pIC50 of CN(C(=O)[C@@H](S[C@@H]1O[C@H](CO)[C@H](O)[C@H](n2cc(-c3cc(F)c(F)c(F)c3)nn2)[C@H]1O)C1(O)CCOCC1)c1cccnc1 [Example 2.41.234S.] .
Data returned: 7.00

Data request: Entry CN(CCC(C)(C)C)C(=O)C(S[C@@H]1O[C@H](CO)[C@H](O)[C@H](n2cc(-c3cc(F)c(F)c(F)c3)nn2)[C@H]1O)C1(O)CCC(F)(F)CC1 (stereo partly shown) : reported pIC50 = ?
Data returned: 6.82

Data request: # pIC50 lookup, item CCN(C)C(=O)[C@@H](S[C@@H]1O[C@H](CO)[C@H](O)[C@H](n2cc(-c3cc(F)c(F)c(F)c3)nn2)[C@H]1O)C1CCOCC1 [Example 2.56.203S., reference compound]
Data returned: 4.44

Data request: I'd like to know its pIC50. The molecule in question is CN(CC(F)(F)F)C(=O)[C@H](S[C@@H]1O[C@H](CO)[C@H](O)[C@H](n2cc(-c3cc(F)c(F)c(F)c3)nn2)[C@H]1O)C1(O)CCCCC1 [Example 2.39.219R.]
Data returned: 6.26

Data request: Bench note: what pIC50 did CCN(CC1CC(F)(F)C1)C(=O)C(S[C@@H]1O[C@H](CO)[C@H](O)[C@H](n2cc(-c3cc(F)c(F)c(F)c3)nn2)[C@H]1OC)C1(O)CCC(F)(F)CC1 (stereo partly shown) show?
Data returned: 6.89

Data request: Requested read-out: pIC50. Entry: O=C(C(S[C@@H]1O[C@H](CO)[C@H](O)[C@H](n2cc(-c3cc(F)c(F)c(F)c3)nn2)[C@H]1O)C(O)Cc1ccccc1)N1CCC1 (stereo partly shown)
Data returned: 5.23

Data request: Please report the recorded pIC50 for CO[C@@H]1[C@@H](n2cc(-c3cc(F)c(F)c(F)c3)nn2)[C@@H](O)[C@@H](CO)O[C@H]1SC(C(=O)N(C)CCC(C)(C)C)C1(O)CCC(F)(F)CC1 (stereo partly shown) .
Data returned: 6.92

Data request: Entry CN(C)C(=O)[C@@H](S[C@@H]1O[C@H](CO)[C@H](O)[C@H](n2cc(-c3cc(F)c(F)c(F)c3)nn2)[C@H]1O)C1(O)CCOCC1 [Example 2.41.201S.] has what pIC50?
Data returned: 6.68

Data request: Recorded pIC50 for CO[C@@H]1[C@@H](n2cc(-c3cc(F)c(F)c(F)c3)nn2)[C@@H](O)[C@@H](CO)O[C@H]1S[C@H](C(=O)N1CCC(F)(F)CC1)C1(O)CCC2(CCOCC2)CC1 [Example 2.72.226S.I.] , please?
Data returned: 7.00

====

Recorded measurements of IC50, one per entry
- measured target: UniProtKB P17931
- Sequence (P17931 whole entry): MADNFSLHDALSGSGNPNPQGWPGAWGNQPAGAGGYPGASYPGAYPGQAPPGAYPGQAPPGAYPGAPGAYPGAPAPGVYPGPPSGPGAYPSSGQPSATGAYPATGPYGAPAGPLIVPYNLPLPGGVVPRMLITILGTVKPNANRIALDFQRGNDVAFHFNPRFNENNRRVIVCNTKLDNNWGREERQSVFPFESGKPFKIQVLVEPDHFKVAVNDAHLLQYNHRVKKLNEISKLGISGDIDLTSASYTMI
- protocol notes: Competitive binding assay: biotinylated hGal-3 binding to microplate-adsorbed asialofetuin (ASF), spectrophotometric
- conditions used: Gal-3 inhibition, Table 5; read-out: IC50
Just the number please, in µM, no unit attached.

Please review the entries below; each comes with its answer.
CCN(C)C(=O)[C@@H](S[C@@H]1O[C@H](CO)[C@H](O)[C@H](n2cc(-c3cc(F)c(F)c(F)c3)nn2)[C@H]1O)C1(O)CCOCC1 [Example 2.41.203S.] :: 0.03
O=C(C(S[C@@H]1O[C@H](CO)[C@H](O)[C@H](n2cc(-c3cc(F)c(F)c(F)c3)nn2)[C@H]1O)C1(O)CCC(F)(F)CC1)N1CCC(F)(F)CC1 (some centres unmarked) [Example 2.44.226.] :: 0.09
O=C(C(S[C@@H]1O[C@H](CO)[C@H](O)[C@H](n2cc(-c3cc(F)c(F)c(F)c3)nn2)[C@H]1O)C1(O)CCC1)N1CCCCC1 (some centres unmarked) [Example 2.34.208.] :: 0.38
CN(C(=O)[C@H](S[C@@H]1O[C@H](CO)[C@H](O)[C@H](n2cc(-c3cc(F)c(F)c(F)c3)nn2)[C@H]1O)C1(O)CCOCC1)C1COC1 [Example 2.41.235R.] :: 2.4
CN(CC(C)(C)F)C(=O)C(S[C@@H]1O[C@H](CO)[C@H](O)[C@H](n2cc(-c3cc(F)c(F)c(F)c3)nn2)[C@H]1O)C1(O)CCCCC1 (some centres unmarked) [Example 2.39.222.] :: 0.05
CCN(C)C(=O)[C@H](S[C@@H]1O[C@H](CO)[C@H](O)[C@H](n2cc(-c3cc(F)c(F)c(F)c3)nn2)[C@H]1O)C1(O)CC(F)(F)C1 [Example 2.33.203R.] :: 1.45

Data request: Report IC50 for CN(CC1(F)CCCC1)C(=O)C(S[C@@H]1O[C@H](CO)[C@H](O)[C@H](n2cc(-c3cc(F)c(F)c(F)c3)nn2)[C@H]1O)C1(O)CCC(F)(F)CC1 (mixture of isomers) [Example 2.44.223.] please.
Data returned: 0.05

Data request: Query: IC50; subject: CCN(C)C(=O)C(S[C@@H]1O[C@H](CO)[C@H](O)[C@H](n2cc(-c3cc(F)c(F)c(F)c3)nn2)[C@H]1O)C1(O)CCCC1 (some centres unmarked) [Example 2.38.203.]
Data returned: 0.43

Data request: I have this compound here, CN(C)C(=O)C(S[C@@H]1O[C@H](CO)[C@H](O)[C@H](n2cc(-c3cc(F)c(F)c(F)c3)nn2)[C@H]1O)C1(O)CCC(F)(F)CC1 (single isomer, unassigned) [Example 2.44.201R.] , and I need its recorded IC50.
Data returned: 1.33

Data request: Given O=C([C@@H](S[C@@H]1O[C@H](CO)[C@H](O)[C@H](n2cc(-c3cc(F)c(F)c(F)c3)nn2)[C@H]1O)C1(O)CCC(F)(F)CC1)N1CC(F)(F)C1 [Example 2.44.227S.] , state its recorded IC50.
Data returned: 0.1

Data request: # query: IC50 of entry CN(CC1(F)CCCC1)C(=O)C(S[C@@H]1O[C@H](CO)[C@H](O)[C@H](n2cc(-c3cc(F)c(F)c(F)c3)nn2)[C@H]1O)C1(O)CCC(F)(F)CC1 (some centres unmarked) [Example 2.44.223R.]
Data returned: 3.57
